Overview of reported growth across a group of molecules:
Tested on: SN12C renal
Assay: NCI-60 one-dose screen, 48 h (100 = growth as untreated, 0 = no growth, -100 = all killed)
Conditions: 10 µM unless noted
Compounds without any hit were thinned out: in the full panel of roughly 83,000, 20% have a hit.
All answers are understood in %, so give the number only.

Molecule: CCOC(=O)/C(C#N)=C\c1c[nH]c2ccccc12
Assayed target: SN12C renal
Value kind: growth
Unit abbrev: %
Number: 90.5

Value lookup for growth; key = `O=C(CCl)Nc1ccccc1SCc1cc(Cl)cc2c1OCOC2`
91.3

Value lookup for growth; key = `CCOP(=O)(OCC)/C(=C\N1C(=O)CC(=O)NC1=S)C(=O)OC`
101

Value lookup for growth; key = COC1(OC)C2(Cl)C(Cl)=C(Cl)C1(Cl)C1COCC12 (stereo not drawn)
99.2

Value lookup for growth; key = CCC(C)C1CCC(O)CC1 (stereo not drawn)
108

Value lookup for growth; key = CC12CCC3c4ccc(O)cc4CCC3C1CCC2=O (stereo not drawn)
96.2

Value lookup for growth; key = `Cc1cc(CO)c(O)c(CO)c1`
111

Value lookup for growth; key = `Nc1nc(N)nc(N2CCCCC2)n1`
102

Value lookup for growth; key = `O=Cc1c(O)c2ccccc2[nH]c1=O`
92.3

Value lookup for growth; key = CC(C)C1CCC(C)C(O)C1 (stereo not drawn)
96.3

Value lookup for growth; key = `CN(CCCN(C)CCC1CCCCC1)CCC1CCCCC1`
53.1

Value lookup for growth; key = `CCOC(=O)c1cc(C)[nH]c(=O)c1C#N`
102

Value lookup for growth; key = CCC(C)c1c(N)n(S(=O)(=O)c2ccc(C)cc2)oc1=O (stereo not drawn)
106

====

Tested on: NCI/ADR-RES ovarian
Test: NCI-60 one-dose screen, 48 h (100 = growth as untreated, 0 = no growth, -100 = all killed)
Conditions: 10 µM unless noted
The panel holds about 83,000 compounds, 20% with a hit somewhere; the sample as a whole holds those more often.
Overview of reported growth across a group of compounds:
All answers are understood in %, so give the number only.

Compound: O=Cc1ccc(Cl)c(Cl)c1
Assayed target: NCI/ADR-RES ovarian
Unit abbrev: %
growth: 95.4
//
Compound: C[n+]1cc2cc3c(cc2c2ccccc21)OCO3
Assayed target: NCI/ADR-RES ovarian
Unit abbrev: %
growth: 106

Let's switch to this compound now.
Value lookup for growth; key = Oc1ccc(CCC2CCNc3ccccc32)cc1 (configuration not stated)
74.7

====

Tested on: OVCAR-5 ovarian
Assay: NCI-60 one-dose screen, 48 h
Conditions: 10 µM unless noted
The panel holds about 83,000 compounds, 20% with a hit somewhere; the sample as a whole holds those more often. Activity calls are given as the source filed them. How the source made its calls: active means growth percent below 10; inactive means the rest.
Allowed answers: Yes = active, No = inactive

Molecule: Cc1ccc(NC(=S)N2CCOCC2)cc1C
Assayed target: OVCAR-5 ovarian
Label class: No

Molecule: CCOc1ccccc1NC(=O)CCl
Assayed target: OVCAR-5 ovarian
Label class: No

Molecule: CCCC(OC(C)=O)c1ccc2c(c1)OCO2 (configuration not stated)
Assayed target: OVCAR-5 ovarian
Label class: No

Molecule: C=CC(C)C(C)(C)O (configuration not stated)
Assayed target: OVCAR-5 ovarian
Label class: No

Molecule: CN(C)CCOC(=O)Nc1ccc(Cc2ccc(NC(=O)OCCN(C)C)cc2)cc1
Assayed target: OVCAR-5 ovarian
Label class: No

Any idea what this test logged for CC1(C)C2CCC1(C)C1(C2)OCCS1 (configuration not stated) ?
No

Any idea what this test logged for `O=[N+]([O-])c1ccc(-c2nc(N(CCO)CCO)c3ccccc3n2)o1` ?
Yes

Any idea what this test logged for COC(CCCl)c1ccc(Cl)cc1 (configuration not stated) ?
No

Any idea what this test logged for `Cc1ccc(S(=O)(=O)Oc2ccc3sc4c(CO)ccc(NCCN(C)C)c4c(=O)c3c2)cc1` ?
Yes

Any idea what this test logged for CC(=O)NC(CCC(=O)c1ccccc1)C(=O)O (configuration not stated) ?
No

Any idea what this test logged for `C=CC(C)(C)n1cc(C2=C(O)C(=O)C(c3cn(C(C)(C)C=C)c4ccccc34)=C(O)C2=O)c2ccccc21` ?
No

Any idea what this test logged for `O=CNCCc1ccccc1` ?
No

====

Test system: OVCAR-8 ovarian
Assay: NCI-60 one-dose screen, 48 h (100 = growth as untreated, 0 = no growth, -100 = all killed)
Settings: 10 µM unless noted
The panel holds about 83,000 compounds, 20% with a hit somewhere; the sample as a whole holds those more often. The source made the active and inactive calls. How the source made its calls: active means growth percent below 10; inactive means the rest.
Value kind: growth

Examples from the recorded data:
Compound: O=c1n(CC2CO2)c(=O)n(CC2CO2)n1CC1CO1 (stereo unspecified)
growth: 75% (inactive)
//
Compound: Nc1cc(F)ccc1[N+](=O)[O-]
growth: 118% (inactive)
//
Compound: CC(=O)c1cccc(NS(=O)(=O)c2ccc(C)cc2)c1
growth: 90.1% (inactive)
//
Compound: NNC(=O)CCCCl
growth: 104% (inactive)
//
Compound: CCCCCCCCCCCCCCCCOc1ccccc1NC(=O)CC(C)=O
growth: 113% (inactive)

For OVCAR-8 ovarian, provide growth of `C1Cc2onc(-c3noc4c3CCC4)c2C1` please.
110% (inactive)

For OVCAR-8 ovarian, provide growth of `OCCNc1ccccc1` please.
102% (inactive)

For OVCAR-8 ovarian, provide growth of `C/C(=N\N=C(/C)c1cccc([N+](=O)[O-])c1)c1cccc([N+](=O)[O-])c1` please.
79.6% (inactive)

For OVCAR-8 ovarian, provide growth of CC(=O)C1C(=O)C(=O)N(c2ccc(Cl)c(Cl)c2)C1=O (stereo unspecified) please.
101% (inactive)

For OVCAR-8 ovarian, provide growth of CC(C)N1CC(=O)N2CSCC2C1=O (stereo unspecified) please.
106% (inactive)

For OVCAR-8 ovarian, provide growth of CCC(C)C1CCC(O)CC1 (stereo unspecified) please.
100% (inactive)

For OVCAR-8 ovarian, provide growth of `Oc1cccnc1CN1CCCC1` please.
94.7% (inactive)

For OVCAR-8 ovarian, provide growth of `CN1CCN(C(=S)S)CC1` please.
109% (inactive)

For OVCAR-8 ovarian, provide growth of `Cc1ccc([N+](=O)[O-])c(C)n1` please.
98.4% (inactive)

For OVCAR-8 ovarian, provide growth of `OCCc1ccc(Cl)cc1` please.
98.7% (inactive)

For OVCAR-8 ovarian, provide growth of `CCOC(=O)CO` please.
109% (inactive)

====

Tested on: A498 renal
Experiment: NCI-60 one-dose screen, 48 h
Settings: 10 µM unless noted
This is part of a sample that, as a whole, favours compounds with a hit. Of some 83,000 tested, about 20% had one in any assay. Active and inactive are the calls of the source. The calls were made as follows: active = growth percent below 10; inactive = the rest.
Allowed answers: active, inactive

Compound: O=S(Cc1ccccc1)/C(=C/NC(=S)Nc1cc(Cl)ccc1Cl)c1ccccc1 (stereo not drawn)
Label class: inactive

Compound: COc1ccc(Br)c2c1C(=O)CC2
Label class: inactive

Any idea what this test logged for `OCCNc1ccccc1` ?
inactive

Any idea what this test logged for `Cc1cc(Nc2ccc3c(c2)OCO3)c2cc3c(cc2n1)OCO3` ?
active

Any idea what this test logged for `O=C(Oc1ccccc1Cl)c1ccc(Cl)cc1Cl` ?
inactive

Any idea what this test logged for `CCN(C(C)=O)c1ccc([N+](=O)[O-])cc1` ?
inactive

Any idea what this test logged for `CC(=O)NNC(=S)/N=C\C(C(=O)c1ccccc1)=C(/O)c1ccccc1` ?
inactive

Any idea what this test logged for `CCOP(=O)(NC(c1ccccc1)c1ccccc1)OCC` ?
inactive

Any idea what this test logged for `Cc1ccc(C(C)C)c(OCC(=O)O)c1` ?
inactive

Any idea what this test logged for `N#C/C(=C\NC(=S)N=Nc1c(O)[nH]c2ccccc12)c1nc2ccccc2s1` ?
inactive

Any idea what this test logged for C=CC(=O)OC1CCC(C(C)(C)CC)CC1 (stereo not drawn) ?
inactive

Any idea what this test logged for `COc1ccc(/C=C\C(=O)/C=C/c2ccc(OC)cc2)cc1` ?
inactive

Any idea what this test logged for `Cc1ccc(NC(=O)c2ccccc2Cl)cc1` ?
inactive

====

Overview of reported growth across a group of molecules:
System: T-47D breast
Assay: NCI-60 one-dose screen, 48 h (100 = growth as untreated, 0 = no growth, -100 = all killed)
Conditions: 10 µM unless noted
The panel holds about 83,000 compounds, 20% with a hit somewhere; the sample as a whole holds those more often.
All answers are understood in %, so give the number only.

Examples from the recorded data:
Molecule: CC(=O)OCC1OC(n2cnc3c(=S)nc(N)[nH]c32)C(OC(C)=O)C1OC(C)=O (configuration not stated)
Assayed target: T-47D breast
growth (%): 54.4
--
Molecule: CC(=O)Nc1ncc(S(=O)(=O)c2ccc([N+](=O)[O-])cc2)s1
Assayed target: T-47D breast
growth (%): 91.4

Value lookup for growth; key = `O=C(O)c1ccc(OCc2ccccc2)cc1`
83.7

Value lookup for growth; key = `C/C(O)=C(/C=N/C(=S)Nc1ccccc1)C(=O)Nc1ccccc1C`
79.6

Value lookup for growth; key = `Clc1ncnc2nc[nH]c12`
90.7
